subject.of.test: Kdr (Homo sapiens)
Construct: Kinases are expressed as either kinase domains or full length constructs; made in house
Sequence (P35968 20-1356, species assumed): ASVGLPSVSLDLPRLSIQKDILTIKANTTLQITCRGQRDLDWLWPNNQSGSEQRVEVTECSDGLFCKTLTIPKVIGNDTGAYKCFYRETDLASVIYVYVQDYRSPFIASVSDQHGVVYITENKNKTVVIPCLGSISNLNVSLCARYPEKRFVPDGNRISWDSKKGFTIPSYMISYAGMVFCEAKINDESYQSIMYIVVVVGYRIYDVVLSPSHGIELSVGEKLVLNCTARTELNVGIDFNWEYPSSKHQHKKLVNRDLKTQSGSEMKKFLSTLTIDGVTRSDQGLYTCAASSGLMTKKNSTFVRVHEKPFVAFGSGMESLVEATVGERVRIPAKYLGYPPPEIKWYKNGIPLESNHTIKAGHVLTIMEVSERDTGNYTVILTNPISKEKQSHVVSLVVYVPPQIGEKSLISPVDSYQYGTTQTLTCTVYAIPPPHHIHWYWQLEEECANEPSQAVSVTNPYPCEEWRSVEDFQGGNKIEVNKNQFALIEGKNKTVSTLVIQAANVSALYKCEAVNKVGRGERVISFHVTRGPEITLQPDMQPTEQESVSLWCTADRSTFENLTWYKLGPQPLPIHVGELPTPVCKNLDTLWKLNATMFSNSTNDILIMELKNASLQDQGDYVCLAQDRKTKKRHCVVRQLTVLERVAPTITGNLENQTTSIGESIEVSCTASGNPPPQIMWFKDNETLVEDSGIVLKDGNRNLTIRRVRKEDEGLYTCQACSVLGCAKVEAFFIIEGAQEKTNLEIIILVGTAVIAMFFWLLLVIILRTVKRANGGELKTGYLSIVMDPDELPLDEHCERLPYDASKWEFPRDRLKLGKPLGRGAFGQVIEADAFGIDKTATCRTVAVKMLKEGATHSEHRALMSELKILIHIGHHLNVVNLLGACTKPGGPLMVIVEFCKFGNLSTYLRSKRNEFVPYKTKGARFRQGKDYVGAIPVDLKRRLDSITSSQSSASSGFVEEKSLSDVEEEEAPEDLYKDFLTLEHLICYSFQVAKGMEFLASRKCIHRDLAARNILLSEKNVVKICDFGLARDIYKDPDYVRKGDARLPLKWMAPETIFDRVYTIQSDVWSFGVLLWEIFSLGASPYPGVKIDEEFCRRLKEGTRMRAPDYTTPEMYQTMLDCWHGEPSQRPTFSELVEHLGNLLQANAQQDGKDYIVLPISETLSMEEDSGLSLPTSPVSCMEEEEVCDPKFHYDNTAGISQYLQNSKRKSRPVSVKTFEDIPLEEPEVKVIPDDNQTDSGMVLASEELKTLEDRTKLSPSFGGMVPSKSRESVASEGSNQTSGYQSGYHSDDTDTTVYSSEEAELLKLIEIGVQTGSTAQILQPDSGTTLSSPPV
assay.comment: Kinase inhibition assay (33P transfer), Kdr
Format: biochemical
measurement.conditions: read-out: KDR-1
Recorded IC50 by entry

Guide cases for IC50, answers given:
>  <compound>
COc1cc(Nc2ncnc(-n3c(NCc4ccccc4C)nc4ccccc43)n2)cc(OC)c1OC

>  <subject.of.test>
Kdr (Homo sapiens)

>  <IC50>
< 0.804 µM

$$$$
>  <compound>
COc1cc(C)c(Nc2ncnc(Nc3cc(-c4ccccc4)n[nH]3)n2)cc1OC

>  <subject.of.test>
Kdr (Homo sapiens)

>  <IC50>
0.991 to 5.95 µM

$$$$
>  <compound>
COc1cccc(Nc2ncnc(N(C)c3cccc(Cl)c3)n2)c1

>  <subject.of.test>
Kdr (Homo sapiens)

>  <IC50>
> 13.2 µM

$$$$
>  <compound>
Nc1nc2ccccc2n1-c1ncnc(Nc2ccc3c(c2)OCO3)n1

>  <subject.of.test>
Kdr (Homo sapiens)

>  <IC50>
< 1.15 µM

$$$$
>  <compound>
CN(c1cccc(Cl)c1)c1ncnc(Nc2ccc(C(F)(F)F)cc2)n1

>  <subject.of.test>
Kdr (Homo sapiens)

>  <IC50>
> 11.8 µM

$$$$
>  <compound>
CN(c1cccc(Cl)c1)c1ncnc(Nc2ccc(F)c(Cl)c2)n1

>  <subject.of.test>
Kdr (Homo sapiens)

>  <IC50>
> 12.4 µM

$$$$
>  <compound>
COc1cc(Nc2ncnc(Nc3cccc(C(F)(F)F)c3)n2)cc(OC)c1OC

>  <subject.of.test>
Kdr (Homo sapiens)

>  <IC50>
8.31 to 10.7 µM

$$$$
>  <compound>
COc1ccc(Nc2ncnc(NCC(O)c3ccccc3)n2)cc1OC (stereo not drawn)

>  <subject.of.test>
Kdr (Homo sapiens)

>  <IC50>
> 12.2 µM

$$$$

Query: Which measured IC50 value corresponds to COc1cc(Nc2ncnc(Nc3ccc(Br)c4ccccc34)n2)cc(OC)c1OC ?
Reply: 4.98 to 7.26 µM

Query: // same read-out, input: COc1cc(Nc2ncnc(N(C)c3ccc4c(cnn4Cc4ccccc4)c3)n2)cc(OC)c1OC
Reply: < 0.804 µM

Query: Quick one: COc1cc(Nc2ncnc(-n3c(OCc4ccccn4)nc4ccccc43)n2)cc(OC)c1OC
Reply: < 0.824 µM

Query: Similarly, COc1cc(Nc2ncnc(-n3c(NCc4ccc(C)cc4C)nc4ccccc43)n2)cc(OC)c1OC ?
Reply: 0.782 to 4.69 µM

Query: For CCOC(=O)C(Nc1nc2ccccc2n1-c1ncnc(Nc2cc(OC)c(OC)c(OC)c2)n1)c1ccccc1 (stereo not drawn) then?
Reply: < 0.72 µM

Query: Entry COc1cc(Nc2ncnc(-c3c(O)[nH]c4ccc(Cl)cc34)n2)cc(OC)c1OC please
Reply: < 0.935 µM

Query: Item: O=c1[nH]c2ccccc2n1-c1ncnc(Nc2cc(Cl)cc(Cl)c2)n1
Reply: > 12.1 µM

---

Here's a batch of compounds along with measured pIC50 for Hck-1 (Homo sapiens, UniProt P08631).
pIC50: −log10 of the molar value.

Known results for compounds:
>  <compound>
COc1cc(Nc2ncnc(Nc3cc(-c4ccco4)n[nH]3)n2)cc(OC)c1OC [Compound 308]

>  <subject.of.test>
Hck-1 (Homo sapiens, UniProt P08631)
Sequence (P08631 whole entry): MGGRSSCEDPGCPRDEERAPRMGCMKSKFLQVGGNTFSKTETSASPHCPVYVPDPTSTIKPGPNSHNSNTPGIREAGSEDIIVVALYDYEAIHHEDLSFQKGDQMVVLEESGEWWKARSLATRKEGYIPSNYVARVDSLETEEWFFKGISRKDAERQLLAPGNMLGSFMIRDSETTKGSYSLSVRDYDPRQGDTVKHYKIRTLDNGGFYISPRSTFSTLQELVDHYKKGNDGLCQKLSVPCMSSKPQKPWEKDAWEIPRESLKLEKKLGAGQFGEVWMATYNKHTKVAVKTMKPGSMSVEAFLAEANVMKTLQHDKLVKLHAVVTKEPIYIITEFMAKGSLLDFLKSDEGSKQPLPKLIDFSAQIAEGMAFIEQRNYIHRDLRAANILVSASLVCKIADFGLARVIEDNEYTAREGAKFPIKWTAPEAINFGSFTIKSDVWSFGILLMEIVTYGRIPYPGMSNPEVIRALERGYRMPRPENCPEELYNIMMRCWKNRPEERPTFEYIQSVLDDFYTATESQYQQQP

>  <pIC50>
5.23 to 6.01

$$$$
>  <compound>
COc1cc(Nc2ncnc(Nc3ccc(C)c(F)c3)n2)cc(OC)c1OC [Compound 300]

>  <subject.of.test>
Hck-1 (Homo sapiens, UniProt P08631)

>  <pIC50>
< 4.93

$$$$
>  <compound>
COc1cc(Nc2ncnc(Nc3cccc4ccccc34)n2)cc(OC)c1OCCN1CCOCC1 [Compound 1041]

>  <subject.of.test>
Hck-1 (Homo sapiens, UniProt P08631)

>  <pIC50>
5.32 to 6.10

$$$$

Let us move to another entry and its pIC50.
Query: Any idea what pIC50 was measured for COc1cc(Nc2ncnc(Nc3ccccc3)n2)cc(OC)c1OC [Compound 91] ?
Reply: < 4.90

---

subject.of.test: AKT (Homo sapiens)
Construct: Kinases are expressed as either kinase domains or full length constructs; made in house
Sequence (Q9Y243 whole entry, the tested form may be a part): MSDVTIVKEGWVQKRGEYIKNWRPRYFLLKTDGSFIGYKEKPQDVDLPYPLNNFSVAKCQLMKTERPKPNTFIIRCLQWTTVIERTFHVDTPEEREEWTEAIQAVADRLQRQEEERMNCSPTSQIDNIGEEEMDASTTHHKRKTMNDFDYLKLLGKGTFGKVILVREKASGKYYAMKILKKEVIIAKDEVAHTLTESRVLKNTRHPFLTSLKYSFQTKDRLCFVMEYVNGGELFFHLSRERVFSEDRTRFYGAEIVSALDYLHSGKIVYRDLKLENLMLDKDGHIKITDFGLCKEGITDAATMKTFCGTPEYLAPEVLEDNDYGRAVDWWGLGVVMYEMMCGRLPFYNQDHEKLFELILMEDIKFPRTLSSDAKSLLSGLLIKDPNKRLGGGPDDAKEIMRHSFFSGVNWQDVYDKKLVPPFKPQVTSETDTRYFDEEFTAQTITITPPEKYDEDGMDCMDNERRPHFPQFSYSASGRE
assay.comment: Kinase inhibition assay (33P transfer), AKT
Assay type: biochemical
measurement.conditions: Table 2, class symbols A-E; read-out: AKT3-1
pIC50: −log10 of the molar value.
assay.metric: pIC50

>  <structure.smiles>
CC(C)Nc1ncccc1-c1ncnc(Nc2cccc(Cn3ccnn3)c2)n1

>  <pIC50>
5.04 to 5.21

$$$$
>  <structure.smiles>
NC(=O)Cc1cccc(Nc2ncnc(Nc3cccc(Br)c3)n2)c1

>  <pIC50>
< 4.95

$$$$
>  <structure.smiles>
CCOC(=O)c1cccc(Nc2ncnc(Nc3cc(-c4ccc(C(=O)OC)cc4)n[nH]3)n2)c1

>  <pIC50>
< 5.01

$$$$
>  <structure.smiles>
CC(C)Nc1ncccc1-c1ncnc(Nc2cccc(CC(=O)O)c2)n1

>  <pIC50>
< 4.91

$$$$
>  <structure.smiles>
c1ccc(CNc2nc3ccccc3n2-c2ncnc(Nc3cccc(Cn4ccnn4)c3)n2)cc1

>  <pIC50>
< 5.02

$$$$
>  <structure.smiles>
COc1cc(C)c(Nc2ncnc(Nc3cc(-c4ccc(Cl)cc4)n[nH]3)n2)cc1OC

>  <pIC50>
< 4.99

$$$$

Then this compound:
Query: Query pIC50 on AKT (Homo sapiens) for c1cc(Cn2ccnn2)cc(Nc2ncnc(-n3c(Nc4ccc5[nH]ccc5c4)nc4ccccc43)n2)c1
Reply: 5.05 to 5.15

---

A collection of compounds and their measured pIC50
subject.of.test: Itk (Homo sapiens, UniProt Q08881)
Construct: Kinases are expressed as either kinase domains or full length constructs; made in house
Sequence (Q08881 whole entry, species assumed, the tested form may be a part): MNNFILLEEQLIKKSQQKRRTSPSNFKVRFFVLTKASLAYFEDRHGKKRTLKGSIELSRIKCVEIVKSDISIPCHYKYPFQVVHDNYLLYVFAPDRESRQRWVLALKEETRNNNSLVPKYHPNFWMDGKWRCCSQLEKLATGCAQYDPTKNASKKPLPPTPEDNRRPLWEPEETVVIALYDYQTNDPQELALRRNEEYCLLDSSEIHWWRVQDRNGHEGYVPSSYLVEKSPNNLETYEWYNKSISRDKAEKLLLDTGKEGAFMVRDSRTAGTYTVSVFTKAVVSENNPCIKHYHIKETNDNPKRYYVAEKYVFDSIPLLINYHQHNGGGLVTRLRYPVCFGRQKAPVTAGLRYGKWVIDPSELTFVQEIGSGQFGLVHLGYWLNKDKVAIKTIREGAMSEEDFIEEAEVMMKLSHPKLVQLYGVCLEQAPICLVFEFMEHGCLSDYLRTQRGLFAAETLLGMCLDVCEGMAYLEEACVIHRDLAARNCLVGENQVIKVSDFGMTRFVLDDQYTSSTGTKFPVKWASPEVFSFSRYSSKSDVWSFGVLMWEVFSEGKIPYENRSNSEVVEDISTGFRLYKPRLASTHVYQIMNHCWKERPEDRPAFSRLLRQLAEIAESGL
assay.comment: Kinase inhibition assay (33P transfer), Itk
Assay type: biochemical
measurement.conditions: read-out: Itk-1
pIC50: −log10 of the molar value.

>  <compound>
Cc1ccc2c(c1)CCCN2c1ncnc(Nc2cccc(CO)c2)n1

>  <subject.of.test>
Itk (Homo sapiens, UniProt Q08881)

>  <endpoint.result>
< 4.89

$$$$
>  <compound>
COc1cc(Nc2ncnc(-n3c(NCc4ccc(C)cc4)nc4ccccc43)n2)cc(OC)c1OC

>  <subject.of.test>
Itk (Homo sapiens, UniProt Q08881)

>  <endpoint.result>
< 5.04

$$$$
>  <compound>
O=c1[nH]c2ccccc2n1-c1ncnc(Nc2cccc3cccnc23)n1

>  <subject.of.test>
Itk (Homo sapiens, UniProt Q08881)

>  <endpoint.result>
< 4.90

$$$$
>  <compound>
COc1cc(Nc2ncnc(Nc3ccc4nn(Cc5ccccc5)cc4c3)n2)cc(OC)c1OC

>  <subject.of.test>
Itk (Homo sapiens, UniProt Q08881)

>  <endpoint.result>
5.03 to 5.14

$$$$
>  <compound>
COc1ccc(-c2cn[nH]c2Nc2ncnc(Nc3cc(OC)c(OC)c(OC)c3)n2)cc1OC

>  <subject.of.test>
Itk (Homo sapiens, UniProt Q08881)

>  <endpoint.result>
5.30 to 6.08

$$$$
>  <compound>
COc1cc(Nc2ncnc(Nc3cc(Cl)ccc3C)n2)cc(OC)c1OC

>  <subject.of.test>
Itk (Homo sapiens, UniProt Q08881)

>  <endpoint.result>
< 4.95

$$$$
>  <compound>
O=C(O)Cc1ccc(Nc2ncnc(Nc3cc(-c4ccco4)n[nH]3)n2)cc1

>  <subject.of.test>
Itk (Homo sapiens, UniProt Q08881)

>  <endpoint.result>
5.20 to 5.97

$$$$

// next entry
Query: Param readout = pIC50; param system = Itk (Homo sapiens, UniProt Q08881); param query = COc1cc(Nc2ncnc(N3c4ccccc4CC3C)n2)cc(OC)c1OC (centres unmarked) ; response: value
Reply: 5.21 to 5.99

---

subject.of.test: Itk (Homo sapiens, UniProt Q08881)
Construct: Kinases are expressed as either kinase domains or full length constructs; made in house
assay.comment: Kinase inhibition assay (33P transfer), Itk
Assay type: biochemical
measurement.conditions: read-out: Itk-1
assay.metric: IC50

>  <compound>
NC(=O)Cc1cccc(Nc2ncnc(Nc3cc(-c4ccccc4)n[nH]3)n2)c1 [Compound 578]

>  <IC50>
< 1.04 µM

$$$$
>  <compound>
COC(=O)Cc1cccc(Nc2ncnc(-n3c(NCc4ccc(OC)cc4)nc4ccccc43)n2)c1 [Compound 548]

>  <IC50>
> 9.08 µM

$$$$
>  <compound>
COc1cc(Nc2ncnc(-n3c(NCc4ncc[nH]4)nc4ccccc43)n2)cc(OC)c1OC [Compound 583]

>  <IC50>
0.845 to 5.07 µM

$$$$

Proceed to the following item.
Query: Sample COc1cc(CNc2ncnc(N(C)c3cccc(Cl)c3)n2)cc(OC)c1OC [Compound 747] — what was its IC50?
Reply: > 10.8 µM

Data origin: patent US7074789B2
